The reported numbers originate from patent US20220195015A1.

Attribute: EC50
Target: SARS-CoV-2 spike protein receptor binding domain (RBD) (SARS-CoV-2, UniProt P0DTC2 319-539)
Test: ELISA on coated RBD protein
Assay metric: EC50 (ng/mL)

>>> value_measured("C085 (antibody, V domains shown) VH: QVQLQESGPGLVKPSETLSLTCTVSGDSMSSYFWTWIRQPPGKGLECIGYFYPSGSTNYNPSLKSRVTISIDTSKNQFSLKLSSVTAADTAVYYCARLKQQLVGFGWFDPWGQGTLVTVSS VL: QSVLTQPPSVSGAPGQRVTISCTGSSSNIGADYDVHWYQQFPGTAPKVLIYANTNRPSGVPERFSGSKSGTSASLAITGLQAEDEADYYCQSYDHSLNWVFGGGTKLTVL")
2.38
>>> value_measured("C066 (antibody, V domains shown) VH: EVQLVESGGGLIQPGGSLRLSCAASGLLVSRNYMTWVRQAPGKGLEWVSVIYSGGSTFYADSVRGRFTISRDNSKNTLYLQMDSLRAEDTAVYYCARDVGDYYGMDVWGQGTTVTVSS VL: DIQLTQSPAFLSASVGDRVTITCRASQGMSNYLAWYQQKPGKAPNLLIYTASTLQSGVPSRFSGSGSGTEFTLTISSLQPEDFATYYCQLLNSYPQLTFGGGTKVEIK")
4.2
>>> value_measured("C090 (antibody, V domains shown) VH: QVQLVESGGGVVQPGRSLRLSCAASGFTFRTYAMHWVRQAPGKGLEWVAVILSDGNNKYYADSVKGRFTISRDNSKNTLYLQMNSLRAEDTAIFYCAREQEANYYDISGYYHWGESLGYWGQGTLVTVSS VL: DIQLTQSPSFLSASVGDRVTITCRASQGISSYLAWYQQKPGKAPKFLIYGASTLQSGVPSRFSGSGSGTEFTLTISSLQPEDFASYYCQKVNSYPPGLTFGGGTKVEIK")
6.22
>>> value_measured("C050 (antibody, V domains shown) VH: EVQLVESGGGLFQPGGSLRLSCAASGFSVRNNYVSWVRQAPGKGLEWVSVIYSGGTTYYADSVKGRFTISRDISENTLYLQMNSLRAEDTAVYYCAREGDVEGLHDFWSGYSRDRYYFDYWGQGTLVTVSS VL: QSALTQPASVSGSPGQSIIISCTGTSGDIGGYNYVSWYQQHPGKAPKLMIYDVSFRPSGVSNRFSGSKSDNTASLTISGLQAEDEADYYCSSFTGNNTRVFGTGTKVTVL")
1.93
